Biological target: Ba/F3-Δ19del/T790M/C797S cells (Homo sapiens, UniProt P00533, T790M/C797S, cells depend on it, form not given)
Sequence (P00533 with tags, fused parts or gaps DEL746-750/T790M/C797S, form open): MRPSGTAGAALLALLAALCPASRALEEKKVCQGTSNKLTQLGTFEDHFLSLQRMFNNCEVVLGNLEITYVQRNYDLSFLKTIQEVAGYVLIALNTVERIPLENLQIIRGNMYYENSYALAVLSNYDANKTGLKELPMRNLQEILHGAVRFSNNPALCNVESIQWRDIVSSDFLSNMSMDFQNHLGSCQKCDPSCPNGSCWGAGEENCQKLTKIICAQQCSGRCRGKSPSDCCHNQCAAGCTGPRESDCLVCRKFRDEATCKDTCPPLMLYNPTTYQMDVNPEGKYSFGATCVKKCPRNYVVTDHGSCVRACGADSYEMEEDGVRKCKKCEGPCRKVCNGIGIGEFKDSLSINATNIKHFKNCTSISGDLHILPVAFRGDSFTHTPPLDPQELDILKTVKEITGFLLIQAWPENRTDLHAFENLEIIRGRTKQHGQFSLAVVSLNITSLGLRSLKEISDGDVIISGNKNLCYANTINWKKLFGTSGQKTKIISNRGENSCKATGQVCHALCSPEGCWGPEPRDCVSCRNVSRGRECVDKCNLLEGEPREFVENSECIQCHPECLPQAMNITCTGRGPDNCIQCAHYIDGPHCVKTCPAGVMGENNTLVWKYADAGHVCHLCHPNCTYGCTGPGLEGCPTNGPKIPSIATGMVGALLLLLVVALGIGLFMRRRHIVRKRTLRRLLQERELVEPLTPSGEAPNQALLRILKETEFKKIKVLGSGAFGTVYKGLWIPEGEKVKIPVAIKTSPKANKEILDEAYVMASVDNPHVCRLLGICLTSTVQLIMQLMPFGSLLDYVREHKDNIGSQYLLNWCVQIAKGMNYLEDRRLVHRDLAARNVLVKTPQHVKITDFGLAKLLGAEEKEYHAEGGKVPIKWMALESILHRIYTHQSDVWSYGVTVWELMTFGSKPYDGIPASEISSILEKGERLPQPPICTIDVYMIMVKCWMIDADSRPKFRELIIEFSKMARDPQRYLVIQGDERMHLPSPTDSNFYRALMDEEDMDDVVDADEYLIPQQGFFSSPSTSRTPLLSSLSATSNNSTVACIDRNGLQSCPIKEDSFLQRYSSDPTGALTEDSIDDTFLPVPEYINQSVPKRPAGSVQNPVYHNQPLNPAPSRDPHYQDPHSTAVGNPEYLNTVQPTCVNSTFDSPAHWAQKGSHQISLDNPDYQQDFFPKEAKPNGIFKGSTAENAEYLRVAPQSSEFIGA
Assay: Ba/F3-Δ19del/T790M/C797S cell proliferation assay (CellTiter Glo)
Assay type: cell-based
Conditions: 72 hours, CTG luminescence, read-out: BaF3 Δ19del/T790M/C797S IC50
Measured GI50 determines class: bottom: < 10 nM; middle: ≥ 10 nM and < 40 nM; top: ≥ 40 nM

Illustrative cases are given below, each with its answer.
- compound: "CCc1cc(Nc2ncc(Br)c(Nc3ccc(N4CCOCC4)cc3P(C)(C)=O)n2)c(OC)cc1N1CCC(N2CCN(C)CC2)CC1 [Compound 8]"
  group.label: "middle"
- compound: "CCn1cc(-c2cc(Nc3ncc(Br)c(Nc4ccc(C5CC5)cc4P(C)(C)=O)n3)c(OC)cc2N2CCC(N3CCN(C)CC3)CC2)cn1 [Compound 2]"
  group.label: "bottom"
- compound: "COc1cc(N2CCC(N3CCN(C)CC3)CC2)ccc1Nc1ncc(Cl)c(Nc2ccc(C)cc2P(C)(C)=O)n1 [Control example 1, reference compound]"
  group.label: "top"
- compound: "CCc1cc(Nc2ncc(Br)c(Nc3ccc(C4CC4)cc3P(C)(C)=O)n2)c(OC)cc1N1CCC(N2CCN(C)CC2)CC1 [Compound 1]"
  group.label: "bottom"

Just checking, what class would you give CCc1cc(Nc2ncc(Cl)c(Nc3ccc(C4CCCC4)cc3P(C)(C)=O)n2)c(OC)cc1N1CCC(N2CCN(C)CC2)CC1 [Compound 7] here?
middle

Just checking, what class would you give CCc1cc(Nc2ncc(OC)c(Nc3ccc(C4CC4)cc3P(C)(C)=O)n2)c(OC)cc1N1CCC(N2CCN(C)CC2)CC1 [Compound 5] here?
top

Just checking, what class would you give CCn1cc(-c2cc(Nc3ncc(OC)c(Nc4ccc(C5CC5)cc4P(C)(C)=O)n3)c(OC)cc2N2CCC(N3CCN(C)CC3)CC2)cn1 [Compound 3] here?
top

Just checking, what class would you give COc1cc(N2CCC(N3CCN(C)CC3)CC2)c(C)cc1Nc1ncc(Br)c(Nc2ccc(C3CC3)cc2P(C)(C)=O)n1 [Compound 10] here?
bottom

Just checking, what class would you give COc1cc(N2CCC(N3CCN(C)CC3)CC2)c(-c2ccn(C)c2)cc1Nc1ncc(Br)c(Nc2ccc(C3CC3)cc2P(C)(C)=O)n1 [Compound 9] here?
bottom

Just checking, what class would you give CCc1cc(Nc2ncc(Br)c(Nc3ccc(C4CCOCC4)cc3P(C)(C)=O)n2)c(OC)cc1N1CCC(N2CCN(C)CC2)CC1 [Compound 6] here?
middle

###

Biological target: EGFR Δ19del/T790M/C797S (Homo sapiens, UniProt P00533, T790M/C797S, form not given)
Sequence (P00533 with tags, fused parts or gaps DEL746-750/T790M/C797S, form open): as above
Assay: EGFR Δ19del/T790M/C797S kinase test (mobility variation analysis, Caliper EZ Reader)
Conditions: kinase inhibition, top concentration 300 nM
result.type: pIC50
Answers are plain numbers, as −log10 of the molar value.

- molecule: "CCc1cc(Nc2ncc(OC)c(Nc3ccc(C4CC4)cc3P(C)(C)=O)n2)c(OC)cc1N1CCC(N2CCN(C)CC2)CC1 [Compound 5]"
  pIC50: 8.80
- molecule: "CCn1cc(-c2cc(Nc3ncc(OC)c(Nc4ccc(C5CC5)cc4P(C)(C)=O)n3)c(OC)cc2N2CCC(N3CCN(C)CC3)CC2)cn1 [Compound 3]"
  pIC50: 9.40
- molecule: "CCc1cc(Nc2ncc(Br)c(Nc3ccc(C4CCOCC4)cc3P(C)(C)=O)n2)c(OC)cc1N1CCC(N2CCN(C)CC2)CC1 [Compound 6]"
  pIC50: 9.15
- molecule: "CCn1cc(-c2cc(Nc3ncc(Br)c(Nc4ccc(C5CC5)cc4P(C)(C)=O)n3)c(OC)cc2N2CCC(N3CCN(C)CC3)CC2)cn1 [Compound 2]"
  pIC50: 9.40

Query: pIC50; subject: COc1cc(N2CCC(N3CCN(C)CC3)CC2)ccc1Nc1ncc(Cl)c(Nc2ccc(C3CC3)cc2P(C)(C)=O)n1 [Compound 4]
8.92
